# credit: PubChem BioAssay (NCI)

TGI by entry:
# Test system: EKVX NSCLC
# assay_info: NCI tumour cell line growth inhibition, 48 h

Look over these answered cases.
[[record]]
compound = "CC[C@H](Nc1c(O)c2c(c(O)c1Cl)C(=O)C=CC2=O)C(=O)OC"
target_desc = "EKVX NSCLC"
reported_measurement = "> 10 µM"

[[record]]
compound = "O=S(=O)(c1ccccc1)C(c1ccc2ccccc2n1)S(=O)(=O)c1ccccc1"
target_desc = "EKVX NSCLC"
reported_measurement = "> 100 µM"

[[record]]
compound = "CC1=C[C@]2(O)C(=O)[C@H](C)C[C@H]3[C@@H](CC[C@@](C)(O)/C=C\\2C1=O)C3(C)C"
target_desc = "EKVX NSCLC"
reported_measurement = "> 100 µM"


Entry `NC(N)=NS(=O)(=O)c1ccc(NNc2c3ccccc3nc3c(C(=O)Nc4ccc(S(=O)(=O)N=C(N)N)cc4)cccc23)cc1` ; TGI = 95.8 µM

---

TGI by entry:
# Tested on: HCC-2998 colon
# assay_info: NCI tumour cell line growth inhibition, 48 h

Look over these answered cases.
[[record]]
compound = "CC12CCC(C(Nc3cc(C(F)(F)F)cc(C(F)(F)F)c3)C1=O)C2(C)C (stereo not given)"
reported_measurement = "> 100 µM"

[[record]]
compound = "COc1ccc(N2C(=O)[C@H]3[C@H]4CC(C(C)(C)C)CC[C@H]4c4c(n(C)c5ccccc45)[C@H]3C2=O)cc1 (stereo not given in full)"
reported_measurement = "> 56.2 µM"

[[record]]
compound = "CC1=NN(c2cccc(Cl)c2)C2(SCC(=O)N2c2nc3ccccc3s2)/C1=C\\c1ccc(N(C)C)cc1 (stereo not given)"
reported_measurement = "> 100 µM"

[[record]]
compound = "O=C1C=CC(=O)C12CCc1ccccc12"
reported_measurement = "> 100 µM"


Attention now turns to another entry.
Entry `CC(C)(C)[Si](C)(C)Oc1cc(CO)cc2c1cc(=N)o[n+]2[O-]` ; TGI = > 10 µM

---

# Tested on: 786-0 renal
# assay_info: NCI tumour cell line growth inhibition, 48 h
assay_readout: TGI

Entry `COc1ccc2nccc(SCC(=O)O)c2c1` ; TGI = > 100 µM

Entry COc1ccc(N2C(=O)[C@H]3[C@H]4CC(C(C)(C)C)CC[C@H]4c4c(n(C)c5ccccc45)[C@H]3C2=O)cc1 (stereo partly specified) ; TGI = > 100 µM

Entry `CCn1c(SCC(=O)N/N=C/c2ccccc2)nc2ccccc2c1=O` ; TGI = 41.7 µM

Entry `COc1cccc(/C=C2\CCCc3ccccc3C2=O)c1` ; TGI = 27.4 µM

Entry `CC(=O)[C@@H]1C/C(=C\OCc2ccccc2)O[C@H]1C` ; TGI = > 100 µM

---

TGI by entry:
# Test system: OVCAR-5 ovarian
# assay_info: NCI tumour cell line growth inhibition, 48 h

[[record]]
compound = "C1CCCCC2(CCCCCCCCC3(CCC1)OCCO3)OCCO2"
reported_measurement = "> 100 µM"

[[record]]
compound = "COc1ccc(-c2cc(-c3ccc(Cl)cc3)nc(SCCCC(=O)NO)n2)cc1"
reported_measurement = "6.92 µM"


Entry O=C(CC(C(=O)c1cccs1)c1cccs1)c1ccsc1 (centres undefined) ; TGI = > 100 µM

Entry `COc1ccc(/C=C2\CN(C)C/C(=C\c3ccc(OC)cc3)C2=O)cc1` ; TGI = > 100 µM

---

# System: MOLT-4 leukemia
# assay_info: NCI tumour cell line growth inhibition, 48 h
TGI by entry:

Look over these answered cases.
[[record]]
compound = "CNC(=O)c1ccc(N2C(=S)N(c3ccc(C#N)c(C(F)(F)F)c3)C(=O)C2(C)C)cc1F"
reported_measurement = "> 100 µM"

[[record]]
compound = "Cc1cc(C)c(S(=O)(=O)N2CCCN(S(=O)(=O)c3c(C)cc(C)cc3C)OCCCO2)c(C)c1"
reported_measurement = "> 100 µM"

[[record]]
compound = "O=C(N/N=C/c1c(-c2ccccc2)no[n+]1[O-])N1CCOCC1"
reported_measurement = "> 100 µM"

[[record]]
compound = "COc1ccc(-c2c3c(cc4cc5c(cc24)OCO5)C(=O)OC3)cc1OC"
reported_measurement = "20.4 µM"


Entry `COc1cccc2c1CCc1c(-c3ccc(F)cc3)cc(-c3ccc4ccccc4n3)nc1-2` ; TGI = > 100 µM

Entry `CN(C)CCNC(=O)c1cccc2nc3cc(Cl)ccc3nc12` ; TGI = 2.77 µM

Entry `Cc1c(S(=O)(=O)O)ccc(N=Nc2c(O)c(C(=O)O)cc3ccccc23)c1Cl` ; TGI = > 100 µM

Entry COc1cc(C2SCC(=O)N2c2ccc(-n3c(-c4ccccc4)nc4ccccc4c3=O)cc2)cc(OC)c1OC (stereo not given) ; TGI = > 100 µM

Entry `Cc1ccc2c(-c3ccnc(Nc4ccccc4)n3)c(-c3ccc(F)cc3)nn2n1` ; TGI = > 25 µM

Entry `COc1cccc(/C=C/[N+](=O)[O-])c1` ; TGI = 11.9 µM

---

# Tested on: UO-31 renal
# assay_info: NCI tumour cell line growth inhibition, 48 h
assay_readout: TGI

[[record]]
molecule = "Cc1cc(-c2nc3sccn3c2/C=N/N=C(N)N)c(C)s1"
assay_readout = "TGI"
reported_measurement = "36.9 µM"

[[record]]
molecule = "CCOP(=O)(OCC)/C(=C/NC(=S)c1ccncc1)C(=O)OC"
assay_readout = "TGI"
reported_measurement = "> 100 µM"

[[record]]
molecule = "Cc1ccccc1NC(=O)c1c(C)oc2c1C(=O)c1ccccc1C2=O"
assay_readout = "TGI"
reported_measurement = "> 100 µM"

[[record]]
molecule = "CCOC(=O)N1c2c(ccn2C)-c2ccn(C)c2N1C(=O)OCC"
assay_readout = "TGI"
reported_measurement = "35.4 µM"


Entry `C[C@@H](O)[C@H](NC(=O)N[C@@H](CC(N)=O)c1nc([C@@H](N)CO)no1)C(=O)O` ; TGI = > 100 µM

Entry O=C1[C@H]2ON(c3ccccc3)C(c3ccccc3)[C@H]2C(=O)N1c1ccc(Cc2ccc(N3C(=O)[C@@H]4ON(c5ccccc5)C(c5ccccc5)[C@@H]4C3=O)cc2)cc1 (some centres undefined) ; TGI = > 100 µM

Entry `O=C(N/N=C/c1c(-c2ccccc2)no[n+]1[O-])N1CCOCC1` ; TGI = > 100 µM

Entry N#CC1C(=O)SC2c3ccccc3C(=O)c3ccccc3C12 (centres undefined) ; TGI = > 10 µM

Entry `CNC(=S)NC(=O)c1c(Cl)n(C(=O)OC(C)(C)C)c2ccccc12` ; TGI = > 100 µM

Entry `O=C1O/C(=C\c2ccccc2)N(c2ccccc2)C1=O` ; TGI = > 100 µM

Entry CC(C)(C)OCC1NC(=O)[C@@H]2Cc3c([nH]c4ccccc34)C(c3ccccc3)N2C1=O (some centres undefined) ; TGI = > 50 µM

Entry C[C@]12CCC(=O)C(O)=C1CC[C@@H]1C2CC[C@]2(C)NC(=O)CCC12 (some centres undefined) ; TGI = > 100 µM

Entry `CCCSc1ccc2[nH]c(/N=C/c3ccccc3)cc2c1` ; TGI = > 100 µM

Entry COc1c(OC(C)C)c(OC(C)C)c2oc(=O)n3c2c1C(c1ccccc1-n1c(C)ccc1C)C=C3 (centres undefined) ; TGI = > 100 µM

---

TGI by entry:
# System: DU-145 prostate
# assay_info: NCI tumour cell line growth inhibition, 48 h

Look over these answered cases.
[[record]]
compound = "COc1cc(N2CCC(N3CCN(C)CC3)CC2)ccc1Nc1ncnc(Nc2ccccc2S(=O)(=O)C(C)C)n1"
reported_measurement = "20.9 µM"

[[record]]
compound = "COc1ccc(N2C(=O)[C@H]3[C@H]4CC(C(C)(C)C)CC[C@H]4c4c(n(C)c5ccccc45)[C@H]3C2=O)cc1 (some centres not stated)"
reported_measurement = "> 100 µM"

[[record]]
compound = "CCO/C=N\\c1c(C#N)c(-c2ccc(Cl)cc2)cn1-c1ccc(C)cc1"
reported_measurement = "> 100 µM"


Per the reported DU-145 prostate data, `O=C1c2ccccc2-c2oc(=O)c3ccccc3c21` has TGI of > 100 µM

Per the reported DU-145 prostate data, N#CC1C(=O)SC2c3ccccc3C(=O)c3ccccc3C12 (configuration not stated) has TGI of > 10 µM

Per the reported DU-145 prostate data, C[C@]12CC[C@H](OC3OC(CO)C(O)C(O)C3O)C[C@H]1CC[C@@H]1[C@@H]2CC[C@]2(C)[C@@H](C3=CCOC3=O)CC[C@]12O (some centres not stated) has TGI of > 100 µM

Per the reported DU-145 prostate data, `COc1cccc(/C=C/[N+](=O)[O-])c1` has TGI of 5.64 µM

---

GI50 by entry:
# System: IGROV1 ovarian
# assay_info: NCI tumour cell line growth inhibition, 48 h

Look over these answered cases.
[[record]]
compound = "C=C(NC(=O)C(=C)NC(=O)c1csc(C2=NC3c4csc(n4)C4NC(=O)c5csc(n5)C(C(C)(O)C(C)O)NC(=O)C5CSC(=N5)C(=CC)NC(=O)C(C(C)O)NC(=O)c5csc(n5)C3(CC2)NC(=O)C(C)NC(=O)C(=C)NC(=O)C(C)NC(=O)C(C(C)CC)NC2C=Cc3c(C(C)O)cc(nc3C2O)C(=O)OC4C)n1)C(N)=O (centres undefined)"
assay_readout = "GI50"
reported_measurement = "64.8 µM"

[[record]]
compound = "CS(=O)(=O)CCNCc1ccc(-c2ccc3ncnc(Nc4ccc(OCc5ccccc5)c(Br)c4)c3c2)o1"
assay_readout = "GI50"
reported_measurement = "4.94 µM"

[[record]]
compound = "C=C1C(=O)O[C@H]2[C@H]1CC/C(COC(=O)c1cc3ccccc3o1)=C\\CC[C@@]1(C)O[C@@H]21"
assay_readout = "GI50"
reported_measurement = "1.39 µM"


Entry `COc1cc2ncn(-c3cc(O[C@@H](C)c4ccccc4Cl)c(C(N)=O)s3)c2cc1OC` ; GI50 = 3.69 µM

Entry `CCCN(CCC)c1ccc(/C=C/c2ccc3cc(OCC)ccc3n2)cc1` ; GI50 = > 100 µM

Entry CC(=O)[CH-]C(=O)c1ccccc1.CC(=O)[CH-]C(=O)c1ccccc1.CC(C)CCCC(C)[C@H]1CCC2[C@@H]3CC=C4C[C@@H]([O-])CC[C@]4(C)C3CC[C@@]21C.CC(C)CCCC(C)[C@H]1CCC2[C@@H]3CC=C4C[C@@H]([O-])CC[C@]4(C)C3CC[C@@]21C.[Ti+4] (some centres undefined) ; GI50 = > 100 µM

Entry `O=c1cc(N2CCN(CCCCCOc3cc(O)c4c(=O)cc(-c5ccccc5)oc4c3)CC2)c2ccccc2o1` ; GI50 = 47.4 µM

Entry Cc1cc(O)cc2c1[C@]1(C)CCC3C(C)(C)CCC[C@]3(C)[C@H]1C2 (some centres undefined) ; GI50 = 20.5 µM

Entry `COc1cc(N2CCC(N3CCN(C)CC3)CC2)ccc1Nc1ncnc(Nc2ccccc2S(=O)(=O)C(C)C)n1` ; GI50 = 2.64 µM
